- System: K. pneumoniae ATCC 43816
value.kind: MIC (µg/mL)
Please respond with the number in µg/mL and leave the unit unwritten.

Exam item: I am curious: what MIC value has been reported for NCCN1CCC(Nc2cc(C(F)(F)F)cc3c2Nc2ccccc2S3)CC1 [compound 140] ?
Marked response: 8

Exam item: Entry CC1CC(C)CN(c2ccc3c(c2)Sc2cc(C(F)(F)F)cc(NC4CCN(CCN)CC4)c2N3)C1.Cl.Cl.Cl (centres unmarked) [compound 274] has what MIC?
Marked response: 4

====

- Test system: Staphylococcus aureus subsp. aureus (ATCC29213)
- assay.info: MIC, broth microdilution (CLSI), Staphylococcus aureus subsp. aureus ATCC29213
- Assay type: cell-based
- condition.parameters: ATCC29213, Table 16, read-out: MIC S. aureus ATCC 29213
value.kind: MIC (µg/mL)
Return type: number; implicit unit µg/mL.

Worked set:
Cl.Cl.NCCN1CCC(Nc2cc(C(F)(F)F)cc3c2Nc2ccc(N4CCCC4)cc2S3)CC1 [compound 284] = 2
CN(C)CCCN1c2ccccc2Sc2cc(-c3cc4cc(C#N)ccc4[nH]3)ccc21 [compound 123] = 2
NCCCN1c2ccc(-c3cc4ccccc4[nH]3)cc2Sc2cc(C(F)(F)F)ccc21 [compound 245] = 2

Attention now turns to another entry.
Exam item: Quick check: MIC of CC1CCCN(c2ccc3c(c2)Sc2cc(C(F)(F)F)cc(NC4CCN(CCN)CC4)c2N3)C1.Cl.Cl (stereo not shown) [compound 301] ?
Marked response: 4

====

- Tested on: Enterococcus faecalis (ATCC29212)
- assay.info: MIC, broth microdilution (CLSI), Enterococcus faecalis ATCC29212
- Format: cell-based
- condition.parameters: read-out: MIC E. faecalis ATCC 29212
Threshold 2 µg/mL. MIC below it: 1.0. MIC at it or above: 0.0.

CCN(CC)c1ccc2c(c1)Sc1cc(C(F)(F)F)cc(NC3CCN(CCN)CC3)c1N2.Cl.Cl.Cl [compound 306] = 0.0
NCCNC(=O)c1ccc2c(c1)Sc1cc(C(F)(F)F)cc(NC3CCN(CCN)CC3)c1N2 [compound 255] = 0.0
NCCN1CCC(Nc2cc(C(F)(F)F)cc3c2Nc2ccccc2S3)CC1 [compound 140] = 0.0
Nc1cc(C(F)(F)F)cc2c1N(CCCn1ccnc1)c1ccccc1S2 [compound 44] = 0.0
CN(C)CCCN1c2ccccc2Sc2cc(-c3cc4ccccc4[nH]3)ccc21 [compound 111] = 0.0
CNCCCN1c2ccccc2Sc2cc(-c3cc4ccccc4[nH]3)ccc21 [compound 186] = 0.0
CC1(C)CCCN(c2ccc3c(c2)Sc2cc(C(F)(F)F)cc(NC4CCN(CCN)CC4)c2N3)C1.Cl.Cl [compound 305] = 1.0
NC1CCCC(CNc2cc(C(F)(F)F)cc3c2Nc2ccccc2S3)C1 (stereo not shown) [compound 133] = 0.0

Exam item: Given the entry Cl.NC1CCCC(CNc2cc(C(F)(F)F)cc3c2Nc2ccc(N4CCCC4)cc2S3)C1 (stereo not shown) [compound 300] , would its reported MIC be below 2 µg/mL?
Marked response: 1.0

Exam item: Bench note: check whether Cl.Cl.NCCNCCC(=O)Nc1cc(C(F)(F)F)cc2c1Nc1ccc(N3CCCC3)cc1S2 [compound 302] shows MIC below 2 µg/mL
Marked response: 0.0

====

- System: Staphylococcus aureus subsp. aureus (ATCC29213)
- assay.info: MIC, broth microdilution (CLSI), Staphylococcus aureus subsp. aureus ATCC29213
- Assay type: cell-based
- condition.parameters: ATCC29213, Table 15, read-out: S. aureus ("wound") (MIC)
Reported values of MIC for individual entries
Report as a plain number; the unit µg/mL is understood.

Known results for molecules:
Cl.NCCNCCCNc1cc(C(F)(F)F)cc2c1Nc1ccc(C3=CCCC3)cc1S2 = 16
Cl.Cl.NC1CCCC(C(=O)Nc2cc(C(F)(F)F)cc3c2Nc2ccc(Br)cc2S3)C1 (stereo not shown) = 2
Cl.NCCCNc1cc(C(F)(F)F)cc2c1Nc1ccc(Br)cc1S2 = 8

# ---- query molecule ----
Exam item: Could you tell me which MIC is on file for CCN(CC)c1ccc2c(c1)Sc1cc(C(F)(F)F)cc(NC3CCN(CCN)CC3)c1N2.Cl.Cl.Cl ?
Marked response: 2

====

For reference, MIC measured on H. pylori ATCC 43504:
// unit must come after the numeric part

Cl.Cl.NCCN1CCC(Nc2cc(C(F)(F)F)cc3c2Nc2ccc(N4CCCC4)cc2S3)CC1 [compound 284] = 32 µg/mL
CC1CCCN(c2ccc3c(c2)Sc2cc(C(F)(F)F)cc(NC4CCN(CCN)CC4)c2N3)C1.Cl.Cl (stereo not shown) [compound 301] = 8 µg/mL

Exam item: Which measured MIC value corresponds to CC1CC(C)CN(c2ccc3c(c2)Sc2cc(C(F)(F)F)cc(NC4CCN(CCN)CC4)c2N3)C1.Cl.Cl.Cl (stereo not shown) [compound 274] ?
Marked response: 16 µg/mL

Exam item: Tell me the measured MIC of Cl.Cl.NCCNCCC(=O)Nc1cc(C(F)(F)F)cc2c1Nc1ccc(N3CCCC3)cc1S2 [compound 302] , please.
Marked response: 32 µg/mL

====

Measured log10 MIC by item
- Test system: Staphylococcus aureus (ATCC25923)
- assay.info: MIC, broth microdilution (CLSI), Staphylococcus aureus ATCC25923
- condition.parameters: ATCC25923, read-out: S. aureus ("Clinical") MIC
Answers are given as log10 of MIC in µg/mL.

In the examples that follow, each entry is paired with its recorded log10 MIC.
FC(F)(F)c1cc(NC[C@@H]2COCCN2)c2c(c1)Sc1ccccc1N2 [compound 159] = 1.08
CC(Nc1cc(C(F)(F)F)cc2c1Nc1ccccc1S2)C1CCCC(N)C1 (stereo not shown) [compound 190] = 0.48
COC(=O)c1ccc2c(c1)Sc1cc(C(F)(F)F)cc(NC3CCN(CCN)CC3)c1N2 [compound 247] = 0.60
N[C@H]1CCC[C@@H](CNc2cc(C(F)(F)F)cc3c2Nc2ccccc2S3)C1 [compound 182] = 0.48
NCCN1CCC(Nc2cc(C(F)(F)F)cc3c2Nc2ccccc2S3)CC1 [compound 140] = 0.48

Exam item: # lookup: log10 MIC of NCCN1CC(Nc2cc(C(F)(F)F)cc3c2Nc2ccccc2S3)C1 [compound 208]
Marked response: 1.08

Exam item: What does the data say about its log10 MIC? Entry: NCCN1CC(C(=O)Nc2cc(C(F)(F)F)cc3c2Nc2ccccc2S3)C1 [compound 196]
Marked response: 1.41

Exam item: Given the entry NC1CCCC(C(=O)Nc2cc(C(F)(F)F)cc3c2Nc2ccc(-c4cc5ccccc5[nH]4)cc2S3)C1 (stereo not shown) [compound 242] , report its measured log10 MIC.
Marked response: 0.60

Exam item: // query log10 MIC value for entry N#Cc1cc(NC2CCN(CCN)CC2)c2c(c1)Sc1ccccc1N2 [compound 215]
Marked response: 1.36

Exam item: Data request, read-out log10 MIC, for O=C(CCN1CCNCC1)Nc1cc(C(F)(F)F)cc2c1Nc1ccccc1S2 [compound 101]
Marked response: 1.51

Exam item: Given NC1CCCC(CNc2cc(C(F)(F)F)cc3c2Nc2ccccc2O3)C1 (stereo not shown) [compound 164] , state its recorded log10 MIC.
Marked response: 1.38

Exam item: For the compound shown here, NC1CC(N)CC(C(=O)Nc2cc(C(F)(F)F)cc3c2Nc2ccccc2S3)C1 (stereo not shown) [compound 170] , give the reported log10 MIC.
Marked response: 0.48

====

A collection of compounds and their measured MIC
- Tested on: Staphylococcus aureus subsp. aureus (ATCC29213)
- assay.info: MIC, broth microdilution (CLSI), Staphylococcus aureus subsp. aureus ATCC29213
- Assay type: cell-based
- condition.parameters: ATCC29213, Table 15, read-out: S. aureus ("wound") (MIC)
Counter-ions that a name gives are not always drawn.
Write the value in µg/mL as a bare number.

Exam item: Quick check: MIC on Staphylococcus aureus subsp. aureus (ATCC29213), item NC1CCCC(C(=O)Nc2cc(C(F)(F)F)cc3c2Nc2ccc(-c4cc5ccccc5[nH]4)cc2S3)C1 (stereo not drawn) ?
Marked response: 8

Exam item: Short answer please: MIC, Staphylococcus aureus subsp. aureus (ATCC29213), entry Cl.NCCN1CCC(Nc2cc(C(F)(F)F)cc3c2Nc2cc(N4CCCC4)ccc2S3)CC1
Marked response: 16

Exam item: Which measured MIC belongs to Cl.NCCN1CCC(Nc2cc(C(F)(F)F)cc3c2Nc2ccc(C4=CCCC4)cc2S3)CC1 , tested on Staphylococcus aureus subsp. aureus (ATCC29213)?
Marked response: 16

Exam item: Form entry - test system: Staphylococcus aureus subsp. aureus (ATCC29213); read-out: MIC; compound: Cl.NCCN1CCC(Nc2cc(C(F)(F)F)cc3c2Nc2ccc(N4CC5CCC4C5)cc2S3)CC1 (stereo not drawn)
Marked response: 1

Exam item: Request - read-out MIC | tested on Staphylococcus aureus subsp. aureus (ATCC29213) | compound NC1CCCC(C(=O)Nc2cc(C(F)(F)F)cc3c2Nc2ccccc2S3)C1 (stereo not drawn)
Marked response: 32

Exam item: Requested read-out MIC, target or system Staphylococcus aureus subsp. aureus (ATCC29213), entry NCCNCCCNc1cc(C(F)(F)F)cc2c1Nc1ccc(C3CCCC3)cc1S2 [compound 353, hydrochloride]
Marked response: 2

Exam item: Form field: MIC recorded for CC1CCCN(c2ccc3c(c2)Sc2cc(C(F)(F)F)cc(NC(=O)CCNCCN)c2N3)C1.Cl.Cl (stereo not drawn) with Staphylococcus aureus subsp. aureus (ATCC29213) (enter value)
Marked response: 16

Exam item: Staphylococcus aureus subsp. aureus (ATCC29213) / MIC / CC1CC(C)N(c2ccc3c(c2)Sc2cc(C(F)(F)F)cc(NCCCNCCN)c2N3)C1.Cl (stereo not drawn) : value?
Marked response: 4

Exam item: Please provide the recorded MIC for CN(C)CCNCC(=O)CNc1cc(C(F)(F)F)cc2c1Nc1ccc(N3CCCC3)cc1S2.Cl.Cl , tested on Staphylococcus aureus subsp. aureus (ATCC29213).
Marked response: 128

Exam item: Item FC(F)(F)c1cc(NC2CCNCC2)c2c(c1)Sc1cc(N3CCNCC3)ccc1N2 [compound 270, hydrochloride] with Staphylococcus aureus subsp. aureus (ATCC29213) - MIC?
Marked response: 32

Exam item: Request: MIC, test system Staphylococcus aureus subsp. aureus (ATCC29213), entry NC1CCCC(CNc2cc(C(F)(F)F)cc3c2Nc2ccccc2S3)C1 (stereo not drawn)
Marked response: 81

Exam item: Fill in the recorded MIC for this compound, with Staphylococcus aureus subsp. aureus (ATCC29213) as test system: Cl.NCCOCCCNc1cc(C(F)(F)F)cc2c1Nc1ccc(Br)cc1S2
Marked response: 8

Exam item: GET /values?readout=MIC&system=Staphylococcus aureus subsp. aureus (ATCC29213)&item= N#Cc1ccc2c(c1)Sc1cc(N3CCN(CCN)CC3)ccc1N2CCCN
Marked response: 128

Exam item: Missing value: MIC, Staphylococcus aureus subsp. aureus (ATCC29213), entry CC(C)C1CCCN(c2ccc3c(c2)Sc2cc(C(F)(F)F)cc(NC4CCN(CCN)CC4)c2N3)C1.Cl.Cl.Cl (stereo not drawn) . Fill in?
Marked response: 4

Exam item: Return MIC measured with Staphylococcus aureus subsp. aureus (ATCC29213) given this compound: COC(=O)c1ccc2c(c1)Sc1cc(C(F)(F)F)cc(NC3CCN(CCN)CC3)c1N2
Marked response: 8

Exam item: # value lookup — system Staphylococcus aureus subsp. aureus (ATCC29213), readout MIC, item CN(C)CCCN1c2ccc(-c3cc4ccccc4[nH]3)cc2Sc2cccnc21
Marked response: 8
